# assayed_system: RAD51 F86L (Homo sapiens, UniProt Q06609 1-339, F86L)
# Sequence (Q06609 whole entry F86L): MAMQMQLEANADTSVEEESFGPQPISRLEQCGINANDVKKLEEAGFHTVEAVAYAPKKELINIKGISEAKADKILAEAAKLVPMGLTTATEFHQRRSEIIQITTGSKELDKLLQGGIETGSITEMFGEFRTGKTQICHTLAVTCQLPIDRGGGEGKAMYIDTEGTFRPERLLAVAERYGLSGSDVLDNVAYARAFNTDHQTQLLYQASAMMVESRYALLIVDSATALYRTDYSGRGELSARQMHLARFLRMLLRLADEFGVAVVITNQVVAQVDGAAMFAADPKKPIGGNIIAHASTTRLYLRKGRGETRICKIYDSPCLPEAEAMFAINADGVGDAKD
# protocol: fluorescence quenching

{"binder": "oligo 9/10 dsDNA (AF546) (dsDNA) DNA 1: AAAAAAAAAAAAAAAAAAAAAAAAA DNA 2: TTTTTTTTTTTTTTTTTTTTTTTTT", "Kd": "1700 nM"}
